Every entry's value here was drawn from patent US8466169B2.

# assayed system: PAR1 (Homo sapiens, UniProt P25116)
# Sequence (P25116 22-425): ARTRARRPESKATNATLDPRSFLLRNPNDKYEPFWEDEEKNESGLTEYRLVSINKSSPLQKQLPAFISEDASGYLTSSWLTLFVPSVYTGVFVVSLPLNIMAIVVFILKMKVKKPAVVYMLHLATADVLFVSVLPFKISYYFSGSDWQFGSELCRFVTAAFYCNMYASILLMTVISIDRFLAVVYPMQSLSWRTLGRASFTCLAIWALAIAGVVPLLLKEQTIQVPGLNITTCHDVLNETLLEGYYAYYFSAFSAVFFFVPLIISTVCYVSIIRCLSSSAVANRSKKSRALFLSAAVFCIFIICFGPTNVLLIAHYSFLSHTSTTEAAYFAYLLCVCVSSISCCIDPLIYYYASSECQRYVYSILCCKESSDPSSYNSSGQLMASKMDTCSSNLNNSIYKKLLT
# experiment: PAR1 binding test (radioligand displacement, membrane preparation)
# Parameters: expressed in transfected cells; host or cells: High Five insect cells (transient expression), membrane preparation
# recorded conditions: human PAR1 receptor expressed in High Five insect cells, membrane 1 mg/ml, radioligand 20 nM, 60 minutes; read-out: Inhibition of binding IC50
pIC50: −log10 of the molar value.
quantity measured: pIC50

query smiles: CCOc1cc2c(c(F)c1OCC)C(=N)N(CC(=O)c1cc(NC(C)=O)cc(S(F)(F)(F)(F)F)c1)C2
endpoint result: 6.64
//
query smiles: CCOc1cc2c(c(F)c1OCC)C(=N)N(CC(=O)c1cc(NC(=O)CC(C)(C)C)cc(S(F)(F)(F)(F)F)c1)C2
endpoint result: 6.44
//
query smiles: CCOc1cc2c(c(F)c1OCC)C(=N)N(CC(=O)c1cc(Br)c(S(F)(F)(F)(F)F)cc1N)C2
endpoint result: 6.89
